- METHOD_DESCRIPTION: viability profiling in MM1S myeloma cells – cell-based, resazurin fluorescence, basal, 24 h, PK04 Diversity Set, profiling panel (AID 1174);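 also: MM1S multiple myeloma cell line; test concentration not given here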
- MEASUREMENT_CONTEXT: higher = more signal, called active from +8 up or from −8 down
MEASURED_ENDPOINT: z-score

COc1cc2c(cc1O)C(c1cccs1)N(Cc1cc3c(cc1Br)OCO3)CC2 (stereo not drawn) ... -0.511
CCCCCCCCCCC(O)C1C=CC2C(=O)N(c3ccccc3)C(=O)C2N1Nc1ccc(C#N)cc1 (stereo not drawn) ... -0.653
CN1C(=O)C2C=CC(C(O)c3cccn3C)N(Nc3ccc([N+](=O)[O-])cc3[N+](=O)[O-])C2C1=O (stereo not drawn) ... -1.76
CC(C)NC(=O)[C@@]1(C)c2ccccc2C(=O)N(Cc2ccc(OC(F)(F)F)cc2)[C@H]1c1ccc(CO)cc1 ... 0.796
CCOC(=O)C=Cc1cccc(C)c1O ... -0.753
C=CCNC(=O)[C@@H]1[C@H]2C(=O)O[C@H](c3ccccc3)[C@H](c3ccccc3)N2[C@H](c2ccccc2OCCO)[C@@]12C(=O)Nc1ccc(C#CCC(C(=O)OC)C(=O)OC)cc12 ... -8.99
CC1CC/C=C\[C@H]2OC34C=CCN(c5ccc(Cl)cc5)C(=O)[C@H]3N(C(C)CO)C(=O)[C@]4(C)C2C(=O)O1 (stereo partly drawn) ... 0.535
CCCCN1CC=CC23O[C@@H]4/C=C\CCC(C)OC(=O)C4[C@H]2C(=O)N(CCCO)[C@@H]3C1=O (stereo partly drawn) ... 0.0853
